Overview of recorded MIC for various compounds
tested on: AD/CDR1-T1355N; experiment: MIC, modified CLSI M27-A3 broth microdilution; settings: Saccharomyces cerevisiae, read-out: MIC (drug susceptibility)
measurement_label: MIC (µg/mL)

compound: CO[C@@H]1C[C@@H](C[C@H]2CC[C@H](C)[C@H]([C@@H](C)C(=O)O)O2)O[C@]2(O[C@](C)([C@H]3CC[C@@](C)([C@@H]4O[C@@H]([C@H]5O[C@@](O)(CO)[C@H](C)C[C@@H]5C)C[C@@H]4C)O3)C[C@H]2C)[C@@H]1C
meas_value: 128
//
compound: CCC(C)n1ncn(-c2ccc(N3CCN(c4ccc(OCC5COC(Cn6cncn6)(c6ccc(Cl)cc6Cl)O5)cc4)CC3)cc2)c1=O (stereo not shown)
meas_value: 16
//
compound: CC/N=c1\cc2oc3cc(NCC)c(C)cc3c(-c3ccccc3C(=O)OCC)c-2cc1C
meas_value: 32
//
compound: C/C=C/C/C=C/CCC(=O)[C@H]1O[C@H]1C(N)=O
meas_value: 4
//
compound: OC(Cn1cncn1)(Cn1cncn1)c1ccc(F)cc1F
meas_value: 320
//
compound: Clc1ccc(COC(Cn2ccnc2)c2ccc(Cl)cc2Cl)c(Cl)c1 (stereo not shown)
meas_value: 2
//
compound: CC[C@@H]([C@H](C)O)n1ncn(-c2ccc(N3CCN(c4ccc(OC[C@@H]5CO[C@@](Cn6cncn6)(c6ccc(F)cc6F)C5)cc4)CC3)cc2)c1=O
meas_value: 2
//
compound: CC(=O)N1CCN(c2ccc(OCC3COC(Cn4ccnc4)(c4ccc(Cl)cc4Cl)O3)cc2)CC1 (stereo not shown)
meas_value: 4
//
compound: CC[C@@]1([C@@H]2O[C@@H]([C@H]3O[C@@](O)(CO)[C@H](C)C[C@@H]3C)C[C@@H]2C)CC[C@H]([C@]2(C)CC[C@]3(C[C@H](O)[C@@H](C)[C@@H]([C@@H](C)[C@@H](OC)[C@H](C)C(=O)O)O3)O2)O1
meas_value: 128
//
compound: C[C@@H]1C[C@@H]([C@H](O)CC2CC(=O)NC(=O)C2)C(=O)[C@@H](C)C1 [CHX, cycloheximide]
meas_value: 2
//
compound: C/C1=C/C(=O)O[C@@H]2C[C@@H](CC[C@H](C)/C=C\C=C\CC1)O[C@@](O)([C@@H]1CSC(=O)N1)C2
meas_value: 2
//
compound: Clc1ccccc1C(c1ccccc1)(c1ccccc1)n1ccnc1
meas_value: 4
//
compound: C[C@@H](c1ncncc1F)[C@](O)(Cn1cncn1)c1ccc(F)cc1F
meas_value: 8
